The reported measurements were obtained from BindingDB's records for doi:10.1021/acs.jmedchem.7b01709.

- EXPERIMENTAL PROTOCOL: Inhibition of protease L10F/V32I/M46I/I47V/Q58E/I84V mutant in HIV1 A17 infected in human MT4 cells assessed as reduction in virus-induced cytopathic effect after 5 days by MTT assay
ENDPOINT: log10 EC50 (log10 of the value in nM)
Each number you see is log10 of EC50, and the unit inside the log is nM.

Use these answered entries as a reference point.
1. COc1cccc2cc(C(=O)N[C@@H](CC(N)=O)C(=O)N[C@@H](Cc3ccccc3)[C@H](O)C(=O)N3CSC(C)(C)[C@H]3C(=O)NCc3c(C)cccc3C)oc12 : 1.92
2. Cc1cccc(C)c1CNC(=O)[C@H]1N(C(=O)[C@@H](O)[C@H](Cc2ccccc2)NC(=O)[C@@H](NC(=O)COc2cccc(N(C)C)c2)[C@H]2CCOC2)CSC1(C)C : 2.22
3. Cc1cccc(C)c1CNC(=O)[C@H]1N(C(=O)[C@@H](O)[C@H](Cc2ccccc2)NC(=O)[C@@H](NC(=O)c2cc3ccccc3o2)[C@H]2CCOC2)CSC1(C)C : 2.83
4. Cc1cccc(C)c1CNC(=O)[C@H]1N(C(=O)[C@@H](O)[C@H](Cc2ccccc2)NC(=O)[C@@H](NC(=O)COc2cccc(Nc3ccccc3)c2)[C@H]2CCOC2)CSC1(C)C : 2.35
5. Cc1cccc(C)c1CNC(=O)[C@H]1N(C(=O)[C@@H](O)[C@H](Cc2ccccc2)NC(=O)[C@H](CC(N)=O)NC(=O)c2cc3ccccc3o2)CSC1(C)C : 1.79

Turning to the following molecule.
Exercise: Name the recorded log10 EC50 for `Cc1ccccc1CNC(=O)[C@H]1N(C(=O)[C@@H](O)[C@H](Cc2ccccc2)NC(=O)[C@@H](NC(=O)c2cnc3ccccc3n2)[C@H]2CCOC2)CSC1(C)C` .
Key: 1.98

* * *

- EXPERIMENTAL PROTOCOL: Inhibition of DRV-resistant protease V32I/L33F/I54M/V82I mutant in HIV1 transfected in 293T cells after 48 hrs by lentiviral vector-based luciferase reporter gene assay
ENDPOINT: pEC50
The value called pEC50 is obtained by taking minus log10 of the concentration in mol/L.

Exercise: For the molecule `COc1cccc2cc(C(=O)N[C@H](C(=O)N[C@@H](Cc3ccccc3)[C@H](O)C(=O)N3CSC(C)(C)[C@H]3C(=O)NCc3c(C)cccc3C)[C@H]3CCOC3)oc12` , what pEC50 is on record?
Key: 9.52

* * *

- EXPERIMENTAL PROTOCOL: Inhibition of DRV-resistant protease V32I/L33F/I54M/I84V mutant in HIV1 transfected in 293T cells after 48 hrs by lentiviral vector-based luciferase reporter gene assay
ENDPOINT: pEC50
Remember the convention: pEC50 equals -log10 of concentration in molar.

Exercise: Look at this compound and give its reported pEC50. `COc1cccc2cc(C(=O)N[C@H](C(=O)N[C@@H](Cc3ccccc3)[C@H](O)C(=O)N3CSC(C)(C)[C@H]3C(=O)NCc3c(C)cccc3C)[C@H]3CCOC3)oc12`
Key: 8.92

* * *

- EXPERIMENTAL PROTOCOL: Inhibition of protease L10F/V32I/M46I/I47V/Q58E/I84V mutant in HIV1 A17 infected in human MT4 cells assessed as reduction in virus-induced cytopathic effect after 5 days by MTT assay
ENDPOINT: pEC50
Keep in mind that pEC50 stands for -log10 of concentration in molar terms.

1. COc1cccc2cc(C(=O)N[C@H](C(=O)N[C@@H](Cc3ccccc3)[C@H](O)C(=O)N3CSC(C)(C)[C@H]3C(=O)NCc3c(C)cccc3C)C(C)C)oc12 : 6.51
2. Cc1cccc(C)c1CNC(=O)[C@H]1N(C(=O)[C@@H](O)[C@H](Cc2ccccc2)NC(=O)[C@@H](NC(=O)c2cc3ccccc3o2)C(C)C)CSC1(C)C : 5.96

Exercise: What pEC50 value was documented for this compound, `COc1cccc2cc(C(=O)N[C@H](C(=O)N[C@@H](Cc3ccccc3)[C@H](O)C(=O)N3CSC(C)(C)[C@H]3C(=O)NCc3c(C)cccc3C)[C@H]3CCOC3)oc12` ?
Key: 7.60

Exercise: How about Cc1ccccc1CNC(=O)[C@H]1N(C(=O)[C@@H](O)[C@H](Cc2ccccc2)NC(=O)c2cccc(O)c2C)CSC1(C)C [AG1776] ?
Key: 5.56
